- Tested on: P. aeruginosa MB9798 (efflux+, IMP-1 plasmid)
- Assay conditions: efflux + (MB9798) strain; imipenem at 2 μg/mL; in the presence of a class A, C, D serine β-lactamase inhibitor closely related to relebactam
Provide the reported MB9798 MITC95 P. aeruginosa uM Efflux WT of each item.
All answers are understood in µM, so give the number only.

Reported MB9798 MITC95 P. aeruginosa uM Efflux WT ( CN(C)[C@H]1CCN(c2ccc(S(=O)(=O)N[C@@H]3CCNC3)c(S(N)(=O)=O)c2-c2nnn[nH]2)C1 [Example 67] ) = 12.50

Reported MB9798 MITC95 P. aeruginosa uM Efflux WT ( NC[C@@H](O)CNS(=O)(=O)c1ccc(N2CCC(C(N)CO)CC2)c(-c2nn[nH]n2)c1S(N)(=O)=O (mixture of isomers) [Example 182] ) = 0.78

Reported MB9798 MITC95 P. aeruginosa uM Efflux WT ( NS(=O)(=O)c1c(S(=O)(=O)N[C@@H]2CCNC2)ccc(N2CCC3(CC2)CNC3)c1-c1nnn[nH]1 [Example 52] ) = 0.78

Reported MB9798 MITC95 P. aeruginosa uM Efflux WT ( NC[C@@H](O)CNS(=O)(=O)c1ccc(N2CCN(CCO)C(=O)C2)c(-c2nn[nH]n2)c1S(N)(=O)=O [Example 146] ) = 1.56

Reported MB9798 MITC95 P. aeruginosa uM Efflux WT ( NOC1CCCN(c2ccc(S(=O)(=O)N[C@@H]3CCNC3)c(S(N)(=O)=O)c2-c2nn[nH]n2)C1=O (stereo partly shown) [Example 150] ) = 12.50

Reported MB9798 MITC95 P. aeruginosa uM Efflux WT ( COC1(CO)CCN(c2ccc(S(=O)(=O)NC[C@H](O)CN)c(S(N)(=O)=O)c2-c2nn[nH]n2)CC1 [Example 21] ) = 3.13

Reported MB9798 MITC95 P. aeruginosa uM Efflux WT ( NS(=O)(=O)c1c(S(=O)(=O)N[C@@H]2CCNC2)ccc(N2CCNC(CO)CC2)c1-c1nn[nH]n1 (stereo partly shown) [Example 127] ) = 3.13

====

Result type: IC50

Entry NCC1CCN(c2ccc(S(=O)(=O)NC[C@@H](N)CN)c(S(N)(=O)=O)c2-c2nn[nH]n2)CC1 , tested on IMP-1 (Serratia marcescens, UniProt P52699), has a reported IC50 of 4.57 nM

Entry NS(=O)(=O)c1c(S(=O)(=O)C2CNC2)ccc(N2CCN(CCO)CC2)c1-c1nnn[nH]1 , tested on IMP-1 (Serratia marcescens, UniProt P52699), has a reported IC50 of 21.9 nM

Entry NS(=O)(=O)c1c(S(=O)(=O)N[C@@H]2CCNC2)ccc(N2CCCCC2=O)c1-c1nn[nH]n1 , tested on IMP-1 (Serratia marcescens, UniProt P52699), has a reported IC50 of 8.46 nM

Entry NS(=O)(=O)c1c(S(=O)(=O)N[C@@H]2CCNC2)ccc(N2CCCCC(O)C2)c1-c1nnn[nH]1 (stereo partly shown) , tested on IMP-1 (Serratia marcescens, UniProt P52699), has a reported IC50 of 2.06 nM

Entry NCCC1CCN(c2ccc(S(=O)(=O)N[C@@H]3CCNC3)c(S(N)(=O)=O)c2-c2nn[nH]n2)CC1 , tested on IMP-1 (Serratia marcescens, UniProt P52699), has a reported IC50 of 1.85 nM

Entry NC[C@@H](O)CNS(=O)(=O)c1ccc(N[C@H]2C[C@@H](N)C2)c(-c2nnn[nH]2)c1S(N)(=O)=O , tested on IMP-1 (Serratia marcescens, UniProt P52699), has a reported IC50 of 70.4 nM

Entry NC[C@@H](O)CNS(=O)(=O)c1ccc(N2CC[C@@H](N)[C@@H](F)C2)c(-c2nn[nH]n2)c1S(N)(=O)=O (single isomer, unassigned) [Example 1] , tested on IMP-1 (Serratia marcescens, UniProt P52699), has a reported IC50 of 5.02 nM

Entry NS(=O)(=O)c1c(S(=O)(=O)N[C@@H]2CCNC2)ccc(N2CCC(Cc3ccccn3)CC2)c1-c1nnn[nH]1 , tested on IMP-1 (Serratia marcescens, UniProt P52699), has a reported IC50 of 0.12 nM

Entry NS(=O)(=O)c1c(S(=O)(=O)N[C@@H]2CCNC2)ccc(NCCN2CCNCC2)c1-c1nnn[nH]1 , tested on IMP-1 (Serratia marcescens, UniProt P52699), has a reported IC50 of 178 nM

Entry NCCCC1CCN(c2ccc(S(=O)(=O)NC[C@H](O)CN)c(S(N)(=O)=O)c2-c2nn[nH]n2)CC1 , tested on IMP-1 (Serratia marcescens, UniProt P52699), has a reported IC50 of 0.67 nM

Entry NC[C@@H](O)CNS(=O)(=O)c1ccc(N2CC[C@H](CN)C2)c(-c2nn[nH]n2)c1S(N)(=O)=O , tested on IMP-1 (Serratia marcescens, UniProt P52699), has a reported IC50 of 23.1 nM

Entry NC[C@@H](O)CNS(=O)(=O)c1ccc(N2CCC(NCCO)CC2)c(-c2nn[nH]n2)c1S(N)(=O)=O [Example 142, bis(2,2,2-trifluoroacetate)] , tested on IMP-1 (Serratia marcescens, UniProt P52699), has a reported IC50 of 5.95 nM

Entry NS(=O)(=O)c1c(S(=O)(=O)C2CNC2)ccc(N2CCC[C@H](O)C2)c1-c1nnn[nH]1 , tested on IMP-1 (Serratia marcescens, UniProt P52699), has a reported IC50 of 6.05 nM

Entry NS(=O)(=O)c1ccc(N2CCC3(CCNCC3)C2=O)c(-c2nn[nH]n2)c1S(N)(=O)=O , tested on IMP-1 (Serratia marcescens, UniProt P52699), has a reported IC50 of 480 nM

Entry NC[C@@H](O)CNS(=O)(=O)c1ccc(N2CCC(C3COC(=O)N3)CC2)c(-c2nn[nH]n2)c1S(N)(=O)=O (stereo partly shown) , tested on IMP-1 (Serratia marcescens, UniProt P52699), has a reported IC50 of 0.19 nM

Entry NC[C@H](N)CNS(=O)(=O)c1ccc(N2CCC(c3c[nH]cn3)CC2)c(-c2nn[nH]n2)c1S(N)(=O)=O , tested on IMP-1 (Serratia marcescens, UniProt P52699), has a reported IC50 of 0.24 nM

Entry NS(=O)(=O)c1c(S(=O)(=O)N[C@@H]2CCNC2)ccc(N2CC[C@@H](O)C2)c1-c1nnn[nH]1 , tested on IMP-1 (Serratia marcescens, UniProt P52699), has a reported IC50 of 1.33 nM

Entry NC1CCCN(c2ccc(S(=O)(=O)C3CNC3)c(S(N)(=O)=O)c2-c2nnn[nH]2)CC1 (stereo not shown) , tested on IMP-1 (Serratia marcescens, UniProt P52699), has a reported IC50 of 191 nM

Entry CN(C)[C@@H]1CCN(c2ccc(S(=O)(=O)N[C@@H]3CCNC3)c(S(N)(=O)=O)c2-c2nnn[nH]2)C1 , tested on IMP-1 (Serratia marcescens, UniProt P52699), has a reported IC50 of 16.2 nM

Entry NC[C@@H](O)CNS(=O)(=O)c1ccc(N2CCC(N)CC2)c(-c2nn[nH]n2)c1S(N)(=O)=O , tested on IMP-1 (Serratia marcescens, UniProt P52699), has a reported IC50 of 16 nM

Entry NS(=O)(=O)c1c(S(=O)(=O)N[C@@H]2CCNC2)ccc(N2CCC(F)(CO)CC2)c1-c1nnn[nH]1 , tested on IMP-1 (Serratia marcescens, UniProt P52699), has a reported IC50 of 1.26 nM

Entry NC[C@@H](O)CNS(=O)(=O)c1ccc(N2CCC[C@@H](CN)C2)c(-c2nnn[nH]2)c1S(N)(=O)=O , tested on IMP-1 (Serratia marcescens, UniProt P52699), has a reported IC50 of 20.6 nM

Entry COC1(CO)CCN(c2ccc(S(=O)(=O)NC[C@H](O)CN)c(S(N)(=O)=O)c2-c2nn[nH]n2)CC1 , tested on IMP-1 (Serratia marcescens, UniProt P52699), has a reported IC50 of 0.56 nM

Entry NC[C@@H](O)CNS(=O)(=O)c1ccc(N2CCC3(CCNC3)C2)c(-c2nn[nH]n2)c1S(N)(=O)=O (stereo partly shown) , tested on IMP-1 (Serratia marcescens, UniProt P52699), has a reported IC50 of 24 nM

Entry NC[C@@H](O)CNS(=O)(=O)c1ccc(N2CCN(CCO)CC2)c(-c2nnn[nH]2)c1S(N)(=O)=O , tested on IMP-1 (Serratia marcescens, UniProt P52699), has a reported IC50 of 4.57 nM

Entry CC(=O)N[C@@H]1CCN(c2ccc(S(=O)(=O)N[C@@H]3CCNC3)c(S(N)(=O)=O)c2-c2nnn[nH]2)C1 , tested on IMP-1 (Serratia marcescens, UniProt P52699), has a reported IC50 of 1.55 nM

Entry NS(=O)(=O)c1c(S(=O)(=O)N[C@@H]2CCNC2)ccc(N2CC(N3CCOCC3)C2)c1-c1nnn[nH]1 , tested on IMP-1 (Serratia marcescens, UniProt P52699), has a reported IC50 of 4.16 nM

Entry NC[C@@H](O)CNS(=O)(=O)c1ccc(N2CCC(CNCCO)CC2)c(-c2nn[nH]n2)c1S(N)(=O)=O , tested on IMP-1 (Serratia marcescens, UniProt P52699), has a reported IC50 of 6.18 nM
